Test: Competitive inhibition of Acidithiobacillus ferrooxidans KDO8P synthase using PEP as substrate after 10 to 15 mins by Michaelis-Menten equation
pKi: −log10 of the molar value.
observable: pKi

{"compound": "C[C@H](OP(=O)(O)O)C(=O)O", "valueReported": 3.00}
{"compound": "C[C@@H](OP(=O)(O)O)C(=O)O", "valueReported": 3.41}
{"compound": "O=C(O)C(O)CCCCCCOP(=O)(O)O (stereo unspecified)", "valueReported": 3.72}
{"compound": "O=C(O)CNCP(=O)(O)O [GLYPHOSATE]", "valueReported": 3.48}
{"compound": "O=C(O)C(CCCCCCOP(=O)(O)O)OP(=O)(O)O (stereo unspecified)", "valueReported": 4.70}
{"compound": "O=C(O)C(CCCCCCO)OP(=O)(O)O (stereo unspecified)", "valueReported": 3.27}
